# condition-details: acidic group
Class YES: pKa at least 8. Class NO: pKa below 8.

Qu. Evaluate O=C(O)[C@H]1O[C@H]1C(=O)[O-] : pKa at minimum 8?
Ans. NO

Qu. Say whether NC(=O)Nc1ncnc2nc[nH]c12 shows pKa of 8 or more.
Ans. YES

Qu. Does pKa meet or surpass 8 for O=C(Oc1ccc(Cl)cc1)C1c2ccccc2-c2ccccc21 ?
Ans. YES

Qu. Form field: pKa at least 8? Entry: Nc1ccc(S(=O)(=O)Nc2cccc[n+]2[O-])cc1
Ans. NO

Qu. For this compound, is measured pKa 8 or higher? CC(C)SC(C)C(=O)O (configuration not stated)
Ans. NO

Qu. Could you tell me if the measured pKa of [O-][n+]1ccc(NO)c2ccccc21 reaches 8 or more?
Ans. YES

###

Catalogue of compounds with associated pKa
# condition-details: basic group
Enter a number only.

compound: Nc1ccc2ccccc2c1[N+](=O)[O-]
value-observed: -0.92

compound: CC(O)[C@@H]1CN[C@H](C(=O)[O-])[C@H]1CC(=O)[O-] (stereo partly drawn)
value-observed: 10.1

compound: C1C[NH2+]CCSCCN1
value-observed: 4.16

compound: CCOCCn1c(CN2CCCN(CCCCn3cccn3)CC2)nc2ccccc21
value-observed: 9.2

compound: O=C([O-])C#CCN1CCOCC1
value-observed: 5.57

Qu. Requested field: pKa. Item: CCN(CC)CC(=O)NC1c2ccccc2-c2ccccc21
Ans. 7.98

Qu. # lookup: pKa of CC(C)(C)C(=O)n1cnc2ccccc21
Ans. 2

Qu. Sample CN(C)CCCN(C)CCCN(C)C — what was its pKa?
Ans. 10

Qu. Entry under review: [O-]c1ncncc1O . Reported pKa?
Ans. 7.48

Qu. Endpoint output: pKa of CC1(C)[C@@H](N)[C@@H]1N . Value?
Ans. 8.96

Qu. Fill in the blank: the reported pKa of Cc1cc(N)cc[n+]1[O-] is ____.
Ans. 4.1

###

Reported pKa is given for each of the following compounds.
# condition-details: acidic group

Worked examples follow.
smiles-notation: Cc1cccc(C(=O)N(C)O)c1
pKa: 8.52
//
smiles-notation: COc1ccc(/C=C\C(=O)O)cc1
pKa: 4.03
//
smiles-notation: Cc1cccc(C)c1NN=C(C#N)C#N
pKa: 6.6
//
smiles-notation: O=[N+]([O-])c1cc[n+](O)cc1
pKa: -1.7

Qu. Look at this compound and give its reported pKa. O=C(O)CCc1ccco1
Ans. 4.36

Qu. Looking for the measured pKa of Cc1ccc(NC(=S)c2cccc(Br)c2)cc1 , can you help?
Ans. 10.9

Qu. Report pKa for Oc1ccc2cc(I)ccc2c1 please.
Ans. 9.23

###

# condition-details: basic group
readout-kind: pKa
Please reply with the number alone, leaving off any unit.

compound: CC1CC[C@H](O)[C@@H](N)C1 (stereo not given in full)
pKa: 9.5

Continue with the next compound.
Qu. Dear colleague, I am looking for the recorded pKa of the following compound: Cn1ccnc1-c1[nH+]ccn1C
Ans. 0.5

###

# condition-details: acidic group
pKa of 5 or higher: Satisfied. Under 5: Not satisfied.

Below are worked cases with known answers.
molecule: O=C(O)c1cccc([N+](=O)[O-])c1C(=O)c1ccccc1
label: Not satisfied
//
molecule: CC1CCn2nnnc2C(C(=O)O)C1 (stereo not given)
label: Not satisfied
//
molecule: Oc1cccc(Br)c1
label: Satisfied

Qu. Does O=C(O)C(CO)[NH2+]Cc1ccccc1O (stereo not given) have a reported pKa of at least 5?
Ans. Not satisfied

Qu. For this molecule, is measured pKa 5 or higher? Cc1[nH]c(-c2ccccc2S)[nH+]c1C
Ans. Not satisfied

Qu. Hi, just wondering whether [NH3+][C@H]1CC[C@H](C(=O)O)CC1 shows pKa of 5 or higher.
Ans. Not satisfied

Qu. Threshold query (pKa >= 5) on O=C(O)COc1ccc([N+](=O)[O-])cc1
Ans. Not satisfied

Qu. Check the entry CC(=O)c1ccc([N+](=O)[O-])cc1 : does pKa equal or exceed 5?
Ans. Satisfied

Qu. Check this molecule for pKa at or above 5: [O-]C(O)=C1c2ccccc2-c2ccccc21
Ans. Satisfied

###

# condition-details: acidic group
readout-kind: pKa
The response must contain the number and no unit.

// worked examples, pKa included
smiles-notation: Oc1c(Cl)cc(Cl)cc1C[NH+]1CCOCC1
pKa: 5.67
--
smiles-notation: O=C(O)c1ccc2ccccc2c1
pKa: 4.2
--
smiles-notation: CC(=O)C(Cc1ccccc1)C(C)=O
pKa: 10.5
--
smiles-notation: O=c1ccccc(O)c1O
pKa: 6.72
--
smiles-notation: Nc1ncccc1O
pKa: 9.5
--
smiles-notation: CN(C)Cc1cc(OCc2ccccc2)ccc1O
pKa: 11.5

Qu. Any idea what pKa was measured for Cn1nnc(CC(=O)O)n1 ?
Ans. 3.44

Qu. Need pKa of Cc1ccc(C(=O)O)cc1 , thanks.
Ans. 4.37

Qu. Fill blank: measured pKa of the molecule O/N=C(/Cc1ccccc1)NO is ____.
Ans. 10.7

###

# condition-details: basic group
readout-kind: pKa
# output: bare number, no unit

molecule: CNC(N)=O
pKa: 0.8

molecule: CN(C)CC(CSC#N)SC#N (stereo not given)
pKa: 6.1

molecule: N#CC(C#N)=NNc1ccccc1
pKa: -0.82

molecule: Cc1cnc(C)c(C)[nH+]1
pKa: -3.6

molecule: Nc1cccc2[nH]c(Cc3ccccc3)nc12
pKa: 8.6

Qu. Please look up its pKa: Oc1ccc2nc3ccccc3cc2c1
Ans. 5.52

Qu. I am curious: what pKa value has been reported for Cc1ccc(N)cc1CN ?
Ans. 9.33

Qu. Look up pKa for this molecule: OC[C@@H]1O[C@H](CN2CCOCC2)[C@@H](O)[C@H](O)[C@@H]1O
Ans. 6.1

Qu. For CCNC[Si](C)(C)C , what is its reported pKa?
Ans. 11.1

Qu. Give its pKa value. Item: [NH3+]CCCc1ccccn1
Ans. 4.98

Qu. Name the reported pKa value associated with the molecule CNc1ccnc([S-])n1
Ans. 11.1

Qu. Quick check: pKa of Nc1cccc2ccc3ncccc3c12 ?
Ans. 5.03

Qu. For the molecule COc1cc(/C=N/c2ncc3nc[nH]c3n2)ccc1O , what pKa is on record?
Ans. 2.79

Qu. What pKa value was documented for this molecule, CO[C@H]1C=CC2=CCN3CC[C@H](CO)/C(=C\CO)[C@]23C1 ?
Ans. 7.79

Qu. Which pKa value belongs to C1CCC(C2=NCCC2)CC1 ?
Ans. 6.05

###

# condition-details: basic group
readout-kind: pKa
Just the number, please, no unit attached.

Worked set:
compound: COc1ccc(C[C@H](C)N)cc1OC
readout-kind: pKa
value-observed: 9.6
//
compound: CCOc1ccc(Nc2ccccc2)cc1
readout-kind: pKa
value-observed: 1.41
//
compound: c1c[nH]c(P(c2ncc[nH]2)c2[nH]cc[nH+]2)n1
readout-kind: pKa
value-observed: 6.59
//
compound: C1=C(c2nc3ccccc3o2)C2CCN1CC2
readout-kind: pKa
value-observed: 7.23
//
compound: CC(C)(CN)C[NH3+]
readout-kind: pKa
value-observed: 7.99
//
compound: Cc1noc(-c2ccccc2)c1C(=O)O
readout-kind: pKa
value-observed: 1.7

Now for a further compound.
Qu. Looking for the measured pKa of O=[PH]([O-])C(NCc1ccncc1)c1ccccc1O (configuration not stated) , can you help?
Ans. 8.05

###

# maps each entry to its pKa
# condition-details: basic group
Give your answer as a number; write no unit.

Below are worked cases with known answers.
molecule: COc1ccc(-c2nc3cnccc3[nH]2)c(OC)c1
pKa: 6.49

molecule: NCCCCCCCC(=O)[O-]
pKa: 11

molecule: CCN(CC)CCCC(C)Nc1ccnc2ccc(OC)cc12 (stereo not given)
pKa: 10.2

molecule: CCC(C)[C@H](N)C(=O)[O-] (stereo not given in full)
pKa: 9.62

molecule: c1cc2c(cn1)CCCC2
pKa: 6.65

molecule: C1CSCCN1
pKa: 9.05

Qu. Entry CCCCNc1ncnc2[nH]ncc12 : reported pKa = ?
Ans. 4.67

Qu. Name the reported pKa value associated with the molecule NCC(N)C[NH3+]
Ans. 7.95

Qu. Find the recorded pKa belonging to Nc1cc(N2CCOCC2)nc(N)n1 and report it.
Ans. 6.73

###

# condition-details: basic group
// map pKa to label using low (below 4), mid (4 to below 8), high (8 or more)

Previously resolved entries follow.
compound: O=C([O-])c1ccccn1
label: mid

compound: COc1cnccc1N
label: high

compound: NC(=O)CCCc1cccnc1
label: mid

compound: Nc1c2[nH]cnc2nc[n+]1[O-]
label: low

compound: CC(C=C(c1cccs1)c1cccs1)N1CCCCC1C (stereo not given)
label: mid

compound: COC(=O)c1ccc2ccccc2n1
label: low

Now for another entry.
Qu. Form: Item = Clc1ccc(-c2ncc(-c3ccccc3)o2)cc1 ; Class = ?
Ans. low
